ELISA 1 ug/ml listing for selected binders.
# Subject of test: T1, His-tagged mouse CD38 (ACRO Biosystems #CD8-M5223) (mouse, UniProt P56528 45-304)
# T1 construct: bought recombinant protein with His tag; also called Murine
# T1 sequence (looked up): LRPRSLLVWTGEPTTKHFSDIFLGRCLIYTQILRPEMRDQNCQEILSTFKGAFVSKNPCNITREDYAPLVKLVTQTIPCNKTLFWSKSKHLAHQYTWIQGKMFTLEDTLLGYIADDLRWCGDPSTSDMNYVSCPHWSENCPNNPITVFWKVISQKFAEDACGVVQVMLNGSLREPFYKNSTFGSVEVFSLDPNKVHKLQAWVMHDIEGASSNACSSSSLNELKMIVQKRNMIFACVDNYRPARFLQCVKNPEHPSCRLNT
# Method description: ELISA, coated His-CD38

Binder	ELISA 1 ug/ml
40769p1.1.H1 (scFv, V domains shown, tested as scFv-Fc supernatant) VH: EVQLLESGGGLVQPGGSLRLSCAASGFTFSDYWMNWVRQAPGKGLEWVSTISSGGSMIYHADSVKGRFTISRDNSKNTLYLQMNSLRPEDTAVYYCAKDNWNDYYGMDVWGQGTTVTVSS VL: QSVLTQPPSASGTPGQRVNISCSGSSSNIRYNYVYWYQQVPGTAPKLLIYKDDQRPSGVPDRFSGSKSGTSASLAISELQSEDEADYYCATWDGSLNARVFGGGTKLTVL	0.049
40596p1.A5 (scFv, V domains shown, tested as scFv-Fc supernatant) VH: EVQLLESGGGLVQPGGSLRLSCAASGFDFSNNAMSWVRQAPGKGLEYVAGSGWSGSFIFYADSVKGRFTVSRDNSENTLYLQMNSLRAEDTAVYYCAKNPGFGEMDVWGQGTTVTVSS VL: EIVLTQSPGSLSLSPGERATLRCRASQSIGSNLAWYQQKPGQAPSLLIYGASTRAADIPDRFSGSGSGTEFTLTITSLQSEDFAVYYCQQYNSWPPLTFGGGTKVEIK	1.81
40566p1.G9 (scFv, V domains shown, tested as scFv-Fc supernatant) VH: DVQLVESGGGVVRPGESLRLSCAASGFTFDNYDMTWVRQAPGEGLEWVSFISSRGTFTYYADSVKGRFTISRDNSKNTLYLQMNSLRAEDTAIYYCAKDSGEYYFFDYWGLGTLVTVSS VL: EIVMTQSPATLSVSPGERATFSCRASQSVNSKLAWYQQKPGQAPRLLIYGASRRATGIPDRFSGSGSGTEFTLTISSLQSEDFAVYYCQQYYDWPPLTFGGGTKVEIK	1.93
40769p1.1.A2 (scFv, V domains shown, tested as scFv-Fc supernatant) VH: EVQLLESGGGLVQPGGSLRLSCAASGFLFDDYGMSWVRQAPGKGLEWVSAISYKGGSTYYADSVKGRFTISRDNSKNTLYLQMSSLRAEDTAVYYCAKDHKWNYYGMDVWGQGTTVTVSS VL: QSVLTQPPSASGTPGQRVTISCSGSTSNIGNDNYVSWYQQLPGTAPRLLIYKDDQRPSGVPDRFSGSKSGTSASLAISGLQSEDEADYYCGTWDDRLNAWVFGGGTKLTVL	0.049
40566p1.B3 (scFv, V domains shown, tested as scFv-Fc supernatant) VH: DVQLVESGGGVVRPGESLRLSCAASGFTFDNYDMTWVRQAPGEGLEWVSFISSRGTFTYYTDSVRGRFTISRDNSKNTLYLEMNSLRAEDTAIYYCAKDSGEYYFFDYWGLGTLVTVSS VL: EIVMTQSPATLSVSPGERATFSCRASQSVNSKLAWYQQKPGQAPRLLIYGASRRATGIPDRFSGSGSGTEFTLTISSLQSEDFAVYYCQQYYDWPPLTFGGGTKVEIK	1.93
